Cited source: ChEMBL document CHEMBL4325853

TARGET_SYSTEM: Cell division protein FtsZ (Staphylococcus aureus) (UniProt P0A031)
Sequence (P0A031 whole entry): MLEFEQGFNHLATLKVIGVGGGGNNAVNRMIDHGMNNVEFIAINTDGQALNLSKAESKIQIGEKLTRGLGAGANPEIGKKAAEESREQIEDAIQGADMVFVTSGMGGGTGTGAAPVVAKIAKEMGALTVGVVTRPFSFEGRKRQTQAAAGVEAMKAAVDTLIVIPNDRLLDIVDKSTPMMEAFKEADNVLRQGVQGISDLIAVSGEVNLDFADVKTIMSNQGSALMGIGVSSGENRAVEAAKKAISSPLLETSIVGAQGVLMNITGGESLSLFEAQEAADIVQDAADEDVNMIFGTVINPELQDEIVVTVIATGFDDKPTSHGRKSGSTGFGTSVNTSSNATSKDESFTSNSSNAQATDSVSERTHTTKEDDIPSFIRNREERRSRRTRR
TEST_SUMMARY: Inhibition of recombinant Staphylococcus aureus FtsZ polymerization at 8 ug/ml by 90 degree light scattering-based fluorescence spectrometric analysis
The source made the active and inactive calls. The rule behind the calls is not given here.
Labels: active, inactive

STRUCTURE_SMILES_STRING: CC(C)c1ccc(CN2CCCN(CCc3cc(-c4cccs4)nc(-c4ccncc4)n3)CC2)cc1
LABEL_CLASS: active
//
STRUCTURE_SMILES_STRING: Cc1nc(CCN2CCCN(Cc3ccc(C(C)C)cc3)CC2)cc(-c2cccs2)n1
LABEL_CLASS: active
//
STRUCTURE_SMILES_STRING: CC(C)(C)c1ccc(CN2CCCN(CCc3cc(-c4cccs4)nc(-c4ccncc4)n3)CC2)cc1
LABEL_CLASS: active
//
STRUCTURE_SMILES_STRING: COc1cccc(OC)c1C(=O)N[C@@H]1C(=O)N2[C@@H]1SC(C)(C)[C@@H]2C(=O)O
LABEL_CLASS: inactive

* * *

Tested on: Staphylococcus aureus
TEST_SUMMARY: Antibacterial activity against methicillin-resistant Staphylococcus aureus isolate 6334 after 18 hrs by broth microdilution method
Type: functional
PARTICULARS: isolate 6334, 18 h

STRUCTURE_SMILES_STRING: CC(C)c1ccc(CN2CCCN(CCc3cc(-c4cccs4)nc(-c4ccncc4)n3)CC2)cc1
MIC90: 2 µg/mL
//
STRUCTURE_SMILES_STRING: CN[C@H](CC(C)C)C(=O)N[C@H]1C(=O)N[C@@H](CC(N)=O)C(=O)N[C@H]2C(=O)N[C@H]3C(=O)N[C@H](C(=O)N[C@H](C(=O)O)c4cc(O)cc(O)c4-c4cc3ccc4O)[C@H](O)c3ccc(c(Cl)c3)Oc3cc2cc(c3O[C@@H]2O[C@H](CO)[C@@H](O)[C@H](O)[C@H]2O[C@H]2C[C@](C)(N)[C@H](O)[C@H](C)O2)Oc2ccc(cc2Cl)[C@H]1O
MIC90: 1 µg/mL

* * *

System: Staphylococcus aureus
TEST_SUMMARY: Antibacterial activity against methicillin-resistant Staphylococcus aureus isolate 6334 after 18 hrs by broth microdilution method
Assay type: functional
PARTICULARS: isolate 6334, 18 h

COMPOUND: FC(F)(F)c1ccc(CN2CCCN(CCc3cc(-c4cccs4)nc(-c4ccncc4)n3)CC2)cc1
SIGN: =
MIC90, µg/mL: 4

COMPOUND: CC(C)(C)c1ccc(CN2CCCN(CCc3cc(-c4cccs4)nc(-c4ccncc4)n3)CC2)cc1
SIGN: =
MIC90, µg/mL: 2

COMPOUND: COc1cccc(OC)c1C(=O)N[C@@H]1C(=O)N2[C@@H]1SC(C)(C)[C@@H]2C(=O)O [METHICILLIN]
SIGN: >
MIC90, µg/mL: 64

* * *

Listed next: entries and their corresponding MIC90.
Test system: Bacillus subtilis
TEST_SUMMARY: Antibacterial activity against Bacillus subtilis 168 after 18 hrs by broth microdilution method
Format: functional
PARTICULARS: subsp. subtilis str. 168, 18 h

COMPOUND: Cc1nc(CCN2CCN(Cc3ccc(F)cc3)CC2)cc(-c2cccs2)n1
SIGN: =
MIC90, µg/mL: 192
//
COMPOUND: Cc1nc(CCNCCN2CCCCC2)cc(-c2cccs2)n1
SIGN: >
MIC90, µg/mL: 192
//
COMPOUND: COc1cccc(OC)c1C(=O)N[C@@H]1C(=O)N2[C@@H]1SC(C)(C)[C@@H]2C(=O)O [METHICILLIN]
SIGN: =
MIC90, µg/mL: 0.5
//
COMPOUND: Cc1nc(CCN2CCCN(Cc3ccccc3)CC2)cc(-c2cccs2)n1
SIGN: =
MIC90, µg/mL: 192
//
COMPOUND: Cc1nc(CCN2CCN(C(=O)OC(C)(C)C)CC2)cc(-c2cccs2)n1
SIGN: >
MIC90, µg/mL: 192
//
COMPOUND: Cc1nc(CCN2CCCN(Cc3ccc(F)cc3)CC2)cc(-c2cccs2)n1
SIGN: =
MIC90, µg/mL: 128
//
COMPOUND: Cc1nc(CCN2C[C@@H]3C[C@H]2CN3)cc(-c2cccs2)n1
SIGN: >
MIC90, µg/mL: 192
//
COMPOUND: Cc1nc(CCNCCN2CCOCC2)cc(-c2cccs2)n1
SIGN: >
MIC90, µg/mL: 192
//
COMPOUND: CC(C)c1ccc(CN2CCCN(CCc3cc(-c4cccs4)nc(-c4ccncc4)n3)CC2)cc1
SIGN: =
MIC90, µg/mL: 2
//
COMPOUND: Cc1nc(CCN2CCCN(Cc3cccc(F)c3)CC2)cc(-c2cccs2)n1
SIGN: =
MIC90, µg/mL: 128

* * *

System: Bacillus subtilis
TEST_SUMMARY: Antibacterial activity against Bacillus subtilis 168 after 18 hrs by broth microdilution method
Type: functional
PARTICULARS: subsp. subtilis str. 168, 18 h
Doc: threshold 60 µg/mL (exclusive). Items with MIC90 beneath it return TRUE; others return FALSE.

STRUCTURE_SMILES_STRING: c1ccc(CN2CCCN(CCc3cc(-c4cccs4)nc(-c4ccncc4)n3)CC2)cc1
TARGET_SYSTEM: Bacillus subtilis
LABEL_CLASS: TRUE
--
STRUCTURE_SMILES_STRING: Cc1nc(CCN2CCNCC2)cc(-c2cccs2)n1
TARGET_SYSTEM: Bacillus subtilis
LABEL_CLASS: FALSE
--
STRUCTURE_SMILES_STRING: Cc1ccc(CN2CCN(CCc3cc(-c4cccs4)nc(C)n3)CC2)cc1
TARGET_SYSTEM: Bacillus subtilis
LABEL_CLASS: FALSE
--
STRUCTURE_SMILES_STRING: CN[C@H](CC(C)C)C(=O)N[C@H]1C(=O)N[C@@H](CC(N)=O)C(=O)N[C@H]2C(=O)N[C@H]3C(=O)N[C@H](C(=O)N[C@H](C(=O)O)c4cc(O)cc(O)c4-c4cc3ccc4O)[C@H](O)c3ccc(c(Cl)c3)Oc3cc2cc(c3O[C@@H]2O[C@H](CO)[C@@H](O)[C@H](O)[C@H]2O[C@H]2C[C@](C)(N)[C@H](O)[C@H](C)O2)Oc2ccc(cc2Cl)[C@H]1O
TARGET_SYSTEM: Bacillus subtilis
LABEL_CLASS: TRUE
--
STRUCTURE_SMILES_STRING: Cc1nc(CCN2CCCN(Cc3ccc(C(C)C)cc3)CC2)cc(-c2cccs2)n1
TARGET_SYSTEM: Bacillus subtilis
LABEL_CLASS: FALSE
--
STRUCTURE_SMILES_STRING: Fc1ccc(CN2CCCN(CCc3cc(-c4cccs4)nc(-c4ccncc4)n3)CC2)cc1F
TARGET_SYSTEM: Bacillus subtilis
LABEL_CLASS: TRUE
--
STRUCTURE_SMILES_STRING: Cc1nc(CCN2CCN(Cc3ccccc3)CC2)cc(-c2cccs2)n1
TARGET_SYSTEM: Bacillus subtilis
LABEL_CLASS: FALSE

* * *

The following compounds are shown together with reported MIC90 values.
Test system: Bacillus subtilis
TEST_SUMMARY: Antibacterial activity against Bacillus subtilis 168 after 18 hrs by broth microdilution method
Type: functional
PARTICULARS: subsp. subtilis str. 168, 18 h

STRUCTURE_SMILES_STRING: Cc1nc(CCN2C[C@@H]3C[C@H]2CN3C(=O)OC(C)(C)C)cc(-c2cccs2)n1
MIC90: > 192 µg/mL

STRUCTURE_SMILES_STRING: Cc1nc(CCN2CCN(c3ccc(C(F)(F)F)cc3)CC2)cc(-c2cccs2)n1
MIC90: > 192 µg/mL

STRUCTURE_SMILES_STRING: Cc1nc(CCNCCN2CCCC2)cc(-c2cccs2)n1
MIC90: > 192 µg/mL

STRUCTURE_SMILES_STRING: Cc1nc(CCN(C)CCN(C)Cc2ccccc2)cc(-c2cccs2)n1
MIC90: > 192 µg/mL
